meta.source: ChEMBL document CHEMBL4376834

Molecular target: Maternal embryonic leucine zipper kinase (Homo sapiens)
Sequence (Q14680 whole entry, the tested form may be a part): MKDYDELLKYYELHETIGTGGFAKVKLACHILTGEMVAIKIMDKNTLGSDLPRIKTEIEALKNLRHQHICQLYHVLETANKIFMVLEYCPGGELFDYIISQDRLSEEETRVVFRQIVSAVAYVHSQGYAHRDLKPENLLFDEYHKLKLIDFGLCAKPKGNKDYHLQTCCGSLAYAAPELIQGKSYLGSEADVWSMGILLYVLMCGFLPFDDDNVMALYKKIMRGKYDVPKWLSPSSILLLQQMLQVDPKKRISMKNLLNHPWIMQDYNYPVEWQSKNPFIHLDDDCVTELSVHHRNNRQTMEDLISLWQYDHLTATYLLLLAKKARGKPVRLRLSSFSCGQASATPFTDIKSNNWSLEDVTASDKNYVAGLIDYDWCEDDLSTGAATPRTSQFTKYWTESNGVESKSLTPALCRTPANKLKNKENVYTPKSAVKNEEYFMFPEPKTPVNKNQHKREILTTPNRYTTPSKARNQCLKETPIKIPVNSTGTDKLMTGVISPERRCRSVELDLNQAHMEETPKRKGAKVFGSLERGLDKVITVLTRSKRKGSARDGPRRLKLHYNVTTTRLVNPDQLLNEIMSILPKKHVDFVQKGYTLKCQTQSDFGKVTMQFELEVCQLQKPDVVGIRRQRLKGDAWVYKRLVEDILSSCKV
Assay: Inhibition of recombinant human MELK (1 to 340 residues) using KKLNRTLSFAEPG as substrate incubated for 40 mins in presence of [gamma-33ATP by radiometric scintillation counting analysis

SMILES_CODE | IC50
CN(C)c1ccc(C(=O)Nc2cccc(NC(=O)COc3ccc4c(=O)ccoc4c3)c2)cc1 | > 10 µM

---

Biological target: Activated CDC42 kinase 1 (Homo sapiens, UniProt Q07912)
Sequence (Q07912 whole entry, the tested form may be a part): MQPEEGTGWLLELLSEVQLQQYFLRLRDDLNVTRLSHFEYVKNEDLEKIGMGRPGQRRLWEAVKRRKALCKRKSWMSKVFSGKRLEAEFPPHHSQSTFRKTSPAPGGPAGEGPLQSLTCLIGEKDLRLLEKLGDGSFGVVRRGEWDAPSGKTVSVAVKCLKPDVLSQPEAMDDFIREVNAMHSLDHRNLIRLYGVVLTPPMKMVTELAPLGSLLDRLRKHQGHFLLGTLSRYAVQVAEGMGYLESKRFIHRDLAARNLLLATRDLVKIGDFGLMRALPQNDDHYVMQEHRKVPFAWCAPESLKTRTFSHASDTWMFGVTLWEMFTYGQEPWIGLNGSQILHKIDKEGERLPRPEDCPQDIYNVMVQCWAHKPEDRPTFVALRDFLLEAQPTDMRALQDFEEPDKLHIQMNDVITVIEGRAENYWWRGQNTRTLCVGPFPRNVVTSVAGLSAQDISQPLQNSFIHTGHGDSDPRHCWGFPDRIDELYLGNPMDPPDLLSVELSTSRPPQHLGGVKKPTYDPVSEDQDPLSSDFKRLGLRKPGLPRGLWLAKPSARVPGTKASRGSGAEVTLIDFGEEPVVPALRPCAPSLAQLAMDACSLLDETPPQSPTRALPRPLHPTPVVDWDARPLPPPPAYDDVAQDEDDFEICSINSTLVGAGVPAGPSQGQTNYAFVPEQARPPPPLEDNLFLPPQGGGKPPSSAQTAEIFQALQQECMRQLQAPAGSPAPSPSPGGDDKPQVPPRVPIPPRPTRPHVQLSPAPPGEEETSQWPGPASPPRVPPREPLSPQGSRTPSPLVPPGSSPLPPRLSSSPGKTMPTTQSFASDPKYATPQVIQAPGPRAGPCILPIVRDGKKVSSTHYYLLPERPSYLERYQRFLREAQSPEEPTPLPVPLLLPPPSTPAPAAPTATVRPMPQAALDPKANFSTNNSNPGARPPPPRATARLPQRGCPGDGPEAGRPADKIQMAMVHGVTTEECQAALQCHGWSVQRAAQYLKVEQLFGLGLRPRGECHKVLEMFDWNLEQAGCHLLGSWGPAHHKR
Experiment: Inhibition of human recombinant ACK1 (1 to 389 residues) using EFPIYDFLPAKKK as substrate incubated for 40 mins in presence of [gamma-33P]ATP by radiometric scintillation counting analysis

SMILES_CODE | TESTED_TARGET | IC50
CN(C)c1ccc(C(=O)Nc2cccc(NC(=O)COc3ccc4c(=O)ccoc4c3)c2)cc1 | Activated CDC42 kinase 1 (Homo sapiens, UniProt Q07912) | > 10 µM
